- Experimental system: T1, Extracellular domain of cyno PD1 (cPD1-ECD) (Macaca fascicularis (cynomolgus))
- T1 construct: Expressed with a hexahistidine tag or as Fc fusion; also called cynoPD1-ECD; cynoPD-1-ECD
- T1 chain: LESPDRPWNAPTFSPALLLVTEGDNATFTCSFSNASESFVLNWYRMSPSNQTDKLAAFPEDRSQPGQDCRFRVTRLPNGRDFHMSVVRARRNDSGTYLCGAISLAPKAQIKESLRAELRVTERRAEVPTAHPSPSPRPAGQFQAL
- Procedure summary: SPR ProteOn, captured mAb, cynoPD1-ECD analyte;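 further: ProteOn XPR36 SPR with antibodies held by anti-IgG Fc on a GLC chip, on-rate, off-rate and KD derived from a Langmuir one-to-one fit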
Known kon of a selection of binders
Recorded metric: kon (M⁻¹ s⁻¹)

{"Binder": "PD1B177 (antibody, V domains shown, Tested as IgG2sigma; also called PD1H164/PH9L3) VH: QVQLVQSGAEVKKPGSSVKVSCKASGGTFSDYVISWVRQAPGQGLEWMGGIIPIYGTANYAQKFQGRVTITADESTSTAYMELSSLRSEDTAVYYCARGTLDRTGHLDYWGQGTLVTVSS VL: EIVLTQSPATLSLSPGERATLSCRASQSVSSYLAWYQQKPGQAPRLLIYDASNRATGIPARFSGSGSGTDFTLTISSLEPEDFAVYYCQQRSNWPLTFGQGTKVEIK", "Measurement units": "M⁻¹ s⁻¹", "Assay result": 292000}
{"Binder": "PD1B192 (antibody, human IgG2, kappa, V domains shown, IgG2sigma/kappa; VH 43, VL 57; also called PD1H3/PD1L133) VH: QVQLVQSGAEVKKPGSSVKVSCKASGGTFSSYAISWVRQAPGQGLEWMGGIIPIFGTANYAQKFQGRVTITADESTSTAYMELSSLRSEDTAVYYCARPGLAAAYDTGSLDYWGQGTLVTVSS VL: EIVLTQSPATLSLSPGERATLSCRASQSVDSYLAWYQQKPGQAPRLLIHDASNRATGIPARFSGSGSGTDFTLTISSLEPEDFAVYYCQQRNYWPLTFGQGTKVEIKR", "Measurement units": "M⁻¹ s⁻¹", "Assay result": 307000}
